# Tested on: Rattus norvegicus
# test: Compound was evaluated for oral antihypertensive activity in spontaneously hypertensive rats at 3 mg/kg peroral administration
# Assay type: functional
endpoint: Max fall in blood pressure (mmHg)
Report the value in mmHg with no unit label.

Solved entries:
[
  {
    "compound": "CC(=O)Nc1cc2c(cc1[N+](=O)[O-])OC(C)(C)[C@@H](O)[C@@H]2N1CCCCC1",
    "unitsLabel": "mmHg",
    "Max fall in blood pressure": 44
  },
  {
    "compound": "CC(=O)Nc1cc2c(cc1[N+](=O)[O-])OC(C)(C)[C@@H](O)[C@@H]2N1CCCC1",
    "unitsLabel": "mmHg",
    "Max fall in blood pressure": 25
  },
  {
    "compound": "COC(=O)C1=C(C)NC(C)=C(C(=O)OC)C1c1ccccc1[N+](=O)[O-]",
    "unitsLabel": "mmHg",
    "Max fall in blood pressure": 62
  },
  {
    "compound": "CC1(C)Oc2ccc(C(N)=O)cc2C(N2CCCCC2)[C@@H]1O.Cl (stereo not given in full)",
    "unitsLabel": "mmHg",
    "Max fall in blood pressure": 76
  }
]

Which Max fall in blood pressure value belongs to Cl.NNc1nncc2ccccc12 [HYDRALAZINE HYDROCHLORIDE] ?
51

====

// Max fall in blood pressure lookup, one value per entry
# System: Rattus norvegicus
# test: Compound was evaluated for oral antihypertensive activity in spontaneously hypertensive rats at 0.3 mg/kg peroral administration
# Format: functional
# output: bare number, implied unit mmHg

Sample records with Max fall in blood pressure:
[
  {
    "molecule": "CC1(C)Oc2cc([N+](=O)[O-])c(N)cc2[C@@H](N2CCCC2)[C@@H]1O",
    "unitsLabel": "mmHg",
    "recordedValue": 83
  },
  {
    "molecule": "CC(=O)Nc1cc2c(cc1[N+](=O)[O-])[C@@H](N1CCCCC1)[C@H](O)C(C)(C)O2",
    "unitsLabel": "mmHg",
    "recordedValue": 108
  },
  {
    "molecule": "CC1(C)Oc2ccc(C#N)cc2C(N2CCCC2)[C@@H]1O.CS(=O)(=O)O (stereo partly specified)",
    "unitsLabel": "mmHg",
    "recordedValue": 41
  },
  {
    "molecule": "CC(=O)Nc1cc2c(cc1C#N)[C@@H](N1CCCC1)[C@H](O)C(C)(C)O2",
    "unitsLabel": "mmHg",
    "recordedValue": 149
  },
  {
    "molecule": "CC(=O)Nc1cc2c(cc1C(N)=O)[C@@H](N1CCCCC1)[C@H](O)C(C)(C)O2",
    "unitsLabel": "mmHg",
    "recordedValue": 34
  }
]

Now look at this entry.
GET /values?readout=Max fall in blood pressure&item= `CC1(C)Oc2cc([N+](=O)[O-])c(N)cc2[C@@H](N2CCCCC2)[C@@H]1O`
42

====

# Tested on: Rattus norvegicus
# test: Compound was evaluated for antihypertensive activity in deoxy-corticosterone acetate (DOCA) treated hypertensive rats at 1 mg/kg peroral administration
# Format: functional
# assayContext: route oral
Documented Max fall in blood pressure across a set of compounds
Respond with the bare value in mmHg.

[
  {
    "compound": "CC1(C)Oc2cc([N+](=O)[O-])ccc2C(N2CCCC2)[C@@H]1O.Cl (some centres not stated)",
    "unitsLabel": "mmHg",
    "Max fall in blood pressure": 44
  }
]

Can you look up Max fall in blood pressure on Rattus norvegicus for CC1(C)Oc2ccc([N+](=O)[O-])cc2C(N2CCCC2)[C@@H]1O.Cl (some centres not stated) ?
52

Can you handle Cl.NNc1nncc2ccccc12 [HYDRALAZINE HYDROCHLORIDE] next?
32

What about this compound? COC(=O)C1=C(C)NC(C)=C(C(=O)OC)C1c1ccccc1[N+](=O)[O-] [NIFEDIPINE]
33

Same again, this time with CC1(C)Oc2ccc(C#N)cc2C(N2CCCC2)[C@@H]1O.CS(=O)(=O)O (some centres not stated)
43

Would you kindly repeat that for CC1(C)Oc2ccc(N)cc2C(N2CCCC2)[C@@H]1O.CS(=O)(=O)O (some centres not stated) ?
6

Follow-up item: CC1(C)Oc2ccc(C(N)=O)cc2C(N2CCCCC2)[C@@H]1O.Cl (some centres not stated)
9

====

# Test system: Rattus norvegicus
# test: Compound was evaluated for oral antihypertensive activity in spontaneously hypertensive rats at 10 mg/kg peroral administration
# Assay type: functional
// Max fall in blood pressure lookup, one value per entry

Known Max fall in blood pressure results, listed for orientation:
[
  {
    "compound": "CC(=O)Nc1cc2c(cc1[N+](=O)[O-])OC(C)(C)[C@@H](O)[C@@H]2N1CCCC1",
    "endpoint": "Max fall in blood pressure",
    "recordedValue": "99 mmHg"
  },
  {
    "compound": "CC1(C)Oc2ccc(N)cc2C(N2CCCC2)[C@@H]1O.CS(=O)(=O)O (stereo partly specified)",
    "endpoint": "Max fall in blood pressure",
    "recordedValue": "-10 mmHg"
  },
  {
    "compound": "CC1(C)Oc2ccc(C(N)=O)cc2C(N2CCCCC2)[C@@H]1O.Cl (stereo partly specified)",
    "endpoint": "Max fall in blood pressure",
    "recordedValue": "109 mmHg"
  },
  {
    "compound": "CC(=O)Nc1ccc2c(c1)C(N1CCCCC1)[C@H](O)C(C)(C)O2.Cl (stereo partly specified)",
    "endpoint": "Max fall in blood pressure",
    "recordedValue": "19 mmHg"
  },
  {
    "compound": "Cl.NNc1nncc2ccccc12 [HYDRALAZINE HYDROCHLORIDE]",
    "endpoint": "Max fall in blood pressure",
    "recordedValue": "89 mmHg"
  }
]

Which measured Max fall in blood pressure belongs to `CC(=O)Nc1cc2c(cc1[N+](=O)[O-])OC(C)(C)[C@@H](O)[C@@H]2N1CCCCC1` , tested on Rattus norvegicus?
89 mmHg

====

Let's look at some molecules and their measured Max fall in blood pressure.
# Test system: Rattus norvegicus
# test: Compound was evaluated for oral antihypertensive activity in spontaneously hypertensive rats at 0.3 mg/kg peroral administration
# Format: functional
Please respond with the number in mmHg and leave the unit unwritten.

Use the examples below as a reference point.
[
  {
    "molecule": "CC1(C)Oc2cc(N)c([N+](=O)[O-])cc2[C@@H](N2CCCCC2)[C@@H]1O",
    "Max fall in blood pressure, mmHg": 111
  },
  {
    "molecule": "CC1(C)Oc2cc(N)c(C#N)cc2[C@@H](N2CCCC2)[C@@H]1O",
    "Max fall in blood pressure, mmHg": 115
  },
  {
    "molecule": "CC1(C)Oc2ccc([N+](=O)[O-])cc2C(N2CCCC2)[C@@H]1O.Cl (stereo not given in full)",
    "Max fall in blood pressure, mmHg": 32
  },
  {
    "molecule": "CC1(C)Oc2cc([N+](=O)[O-])ccc2C(N2CCCC2)[C@@H]1O.Cl (stereo not given in full)",
    "Max fall in blood pressure, mmHg": 17
  }
]

# query: Max fall in blood pressure | item `COC(=O)C1=C(C)NC(C)=C(C(=O)OC)C1c1ccccc1[N+](=O)[O-]` | system: Rattus norvegicus
13
